# System: HepG2
# Run description: GSK_TCMDC: Percent inhibition of human HepG2 cell line. Test compounds present at 10uM.
# Assay type: functional
Property label: Inhibition (%)

Compound | Property label | Data value
CN1CCN(c2cc3c(cc2Cl)CCN3C(=O)Cc2ccc(Cl)c(NC(=O)Nc3cccc(C#N)c3)c2)CC1 | Inhibition | 0
CCOC(=O)c1cn(CC)c2cc(OCc3ccccc3)ccc2c1=O | Inhibition | 2
CCN(CC)CCNc1nc(C=Cc2ccc(Cl)cc2)nc2cc3ccccc3cc12 | Inhibition | 83
Cc1ccc(NC(=O)c2ccc3ncccc3c2)cc1OC1CCN(CCC(C)C)CC1.O=C(O)C(F)(F)F | Inhibition | 2
COc1ccc(NC(=O)[C@H](CC(C)C)Nc2ccnc(NCCc3ccc(F)cc3)n2)cc1.O=C(O)C(F)(F)F | Inhibition | 0
CN(C)C(=O)n1cnc(S(=O)(=O)N(C)c2ccc(Cl)cc2)n1.Cl | Inhibition | 7
O=C(N[C@@H](Cc1ccccc1)C(=O)NC1CCCCCC1)c1ccc(O)c(-c2ccc(Cl)c(Cl)c2)c1 | Inhibition | 0
O=C(Nc1ccc(-c2nc3ccccc3[nH]2)cc1)c1ccc([N+](=O)[O-])s1 | Inhibition | 83
CC(=O)N(C)c1ccc(C(=O)Nc2cccc(-c3cccc(-c4nc5cccc(C)c5[nH]4)c3)c2)cc1 | Inhibition | 11
CC1CN(c2cnn(C/C=C/c3ccc(NC(=O)c4ccc5nonc5c4)cc3)c(=O)c2Cl)CC(C)N1.O=C(O)C(F)(F)F (stereo not drawn) | Inhibition | 71
Cc1c2ccc(N(C)c3ccnc(Nc4ccc5c(c4)nc(NC(C)C)n5C)n3)cc2nn1C.Cl | Inhibition | 2
CCCCOc1ccc(-n2c(Nc3ccccc3)nc3cc(S(N)(=O)=O)ccc32)cc1 | Inhibition | 0
Cc1cc(-c2cccc3c(NC(=O)N4CCc5cc6nccc(N7CCN8CCC[C@H]8C7)c6cc54)cccc23)cc(C)n1.Cl | Inhibition | 12
Cc1cccc2nc(-c3cccc(-c4cccc(NC(=O)NCc5ccccc5)c4)c3)[nH]c12 | Inhibition | 12
CCC(CC)(Cc1ccccc1)NC(=O)[C@H](Cc1ccc(OC)c(OC)c1)Nc1ccc(C#N)c2ccccc12.O=C(O)C(F)(F)F | Inhibition | 16
CN(C)CCN(C)Cc1cccc(-c2ccc3c(Nc4ccc(F)cc4Cl)ccnc3c2)c1 | Inhibition | 53
CN1CCN(CCCN(Cc2csc(-c3ccc(CNCc4ccccc4)cc3)n2)C(=O)c2cc(F)cc(F)c2)CC1.O=C(O)C(F)(F)F | Inhibition | 60
O=C(CCc1c[nH]cn1)Nc1cccc(-c2cccc(-c3nc4ccccc4[nH]3)c2)c1 | Inhibition | 8

---

# reported Inhibition; entries follow
# Tested on: Plasmodium falciparum
# Run description: GSK_TCMDC: Inhibition of Plasmodium falciparum 3D7 in whole red blood cells, using parasite LDH activity as an index of growth. Test compounds present at 2uM
# Assay type: functional
Property label: Inhibition (%)

Molecule | Data value
CC1CCc2sc(-c3nnc(SC(C)C(=O)NC4CC4)o3)cc2C1 (stereo not given) | 83
COC(=O)c1ccc(OCC(O)CO)cc1O (stereo not given) | 100
CN(C)CCCNc1c2ccccc2nc2ccccc12 | 91
Cc1ccc(NC(=O)c2ccc(N3CCN(c4ccncc4)CC3)cc2)cc1F.O=C(O)C(F)(F)F | 100
Cl.N=C(NCCCc1ccccc1)c1cccc(C(=N)NCCCc2ccccc2)n1 | 98
Cc1cccc2nc(-c3cccc(-c4cccc(CNCC5CCCO5)c4)c3)[nH]c12.O=C(O)C(F)(F)F (stereo not given) | 100
CC(C)[C@@H](C(=O)NCc1cccc(C(F)(F)F)c1)N1C(=O)CCC1C(=O)Nc1ccc([N+](=O)[O-])cc1 (stereo not given in full) | 94
CCc1ccc(CN2CCC(NC(=O)c3cc(-c4ccc(N(C)C)cc4)cs3)C2)cc1.O=C(O)C(F)(F)F (stereo not given) | 90
CCN(CC)CCCC(C)Nc1c(-c2ccc(OC)cc2)cnc2ccccc12 (stereo not given) | 93
O=C(CCN1CCCCC1)Nc1ccc(Nc2nccc(NCC(O)c3ccccc3)n2)cc1 (stereo not given) | 100
Cc1c(OC(C)C)nc2ccccc2c1C(=O)N[C@H](c1cccc(F)c1)C1CC1 | 83
COc1ccc(-c2cc(NCc3ccc(-n4ccnc4)cc3)nc(Nc3ccccc3)n2)cc1 | 100
CN(CCCCNC(=O)c1cc2ccccc2[nH]1)C1CC2(CCN(C(=O)OC(C)(C)C)CC2)c2ccccc21 (stereo not given) | 86
O=C(NC1CCCc2ccccc21)[C@@H]1CCCN1C(=O)c1ccc(O)c(-c2cccc([N+](=O)[O-])c2)c1 (stereo not given in full) | 99
COc1cccc2c(N/N=C/c3ccc([N+](=O)[O-])cc3)ccnc12 | 92
O=C(Nc1cccc(-c2cccc(-c3nc4cc(F)ccc4[nH]3)c2)c1)Nc1ccc2c(c1)OCO2 | 100
c1cc(CNc2ncc(-c3ccsc3)c(-c3nccs3)n2)ccn1 | 89
O=C(NCCCCN1CCC(c2ccc3c(c2OCC2COCO2)CCCC3)CC1)c1ccc(-c2ccc(C(F)(F)F)cc2)cc1 (stereo not given) | 99
COc1ccc(CCCc2nc(N)nc(N)c2-c2ccc(Cl)cc2)cc1 | 94
Cc1nc2ccccc2c(=O)n1NCc1ccc(Cl)c(Cl)c1 | 96

This collection of values is drawn from ChEMBL document CHEMBL1157539.
